So I've got a bunch of compounds here, and I need their AC50 values.
measurement.target: Beta-1 adrenergic receptor (Homo sapiens, UniProt P08588); note: assay procedure not described here
Sequence (P08588 whole entry): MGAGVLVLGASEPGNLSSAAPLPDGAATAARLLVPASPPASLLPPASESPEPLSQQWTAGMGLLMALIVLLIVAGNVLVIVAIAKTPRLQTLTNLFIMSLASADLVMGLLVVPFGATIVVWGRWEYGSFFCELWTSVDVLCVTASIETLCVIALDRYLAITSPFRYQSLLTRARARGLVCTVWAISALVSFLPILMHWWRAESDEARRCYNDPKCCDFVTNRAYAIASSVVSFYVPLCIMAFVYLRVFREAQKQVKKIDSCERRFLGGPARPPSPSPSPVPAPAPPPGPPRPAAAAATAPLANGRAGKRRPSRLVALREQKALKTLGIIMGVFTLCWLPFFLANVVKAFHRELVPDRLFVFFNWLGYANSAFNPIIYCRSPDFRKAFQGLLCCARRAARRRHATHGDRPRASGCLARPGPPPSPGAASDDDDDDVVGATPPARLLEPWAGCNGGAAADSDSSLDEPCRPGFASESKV
Type: functional

Which measured AC50 value corresponds to CN1C(=O)CC(=O)N(c2ccccc2)c2cc(Cl)ccc21 ?
> 10 µM

I would be grateful if you could share the reported AC50 for NS(=O)(=O)c1cc(Cl)c(Cl)c(S(N)(=O)=O)c1 [DICHLORPHENAMIDE] .
> 10 µM

What measured AC50 goes with CN1C(=O)CC(C)(c2ccccc2)C1=O (centres undefined) [METHSUXIMIDE] ?
> 10 µM

Find the recorded AC50 belonging to C[C@@H]1O[C@@H]1P(=O)(O)O and report it.
> 10 µM

Which measured AC50 value corresponds to C[C@H]1C[C@@H]2[C@H]([C@@H](O)C[C@@]3(C)[C@H]2CC[C@]3(O)C(=O)CO)[C@@]2(C)C=CC(=O)C=C12 ?
> 10 µM

Would you kindly share the measured AC50 for CN1CCCN=C1COC(=O)C(O)(c1ccccc1)C1CCCCC1 (centres undefined) ?
> 10 µM

Fill blank: measured AC50 of the compound C#C[C@]1(O)CC[C@H]2[C@@H]3CCC4=CCCC[C@@H]4[C@H]3CC[C@@]21C is ____.
> 30 µM

Please give the measured AC50 for this compound: O=C1CCC(N2C(=O)c3ccccc3C2=O)C(=O)N1 (centres undefined) [THALIDOMIDE]
> 10 µM

Any idea what AC50 was measured for CCCOc1ccc(C(=O)OCCN(CC)CC)cc1N ?
> 30 µM

Sample CCN(CC)CCNC(=O)c1cc(Cl)c(N)cc1OC [METOCLOPRAMIDE] — what was its AC50?
> 10 µM

What does the record list as AC50 for CN(C/C=C/c1ccccc1)Cc1cccc2ccccc12 ?
> 30 µM

Record request: AC50 value, item C[N+](C)(C)CCOC(N)=O
> 10 µM

What does the record list as AC50 for C[N+](C)(C)CC(=O)O ?
> 30 µM

Could you share which AC50 value was measured for CS(=O)(=O)c1ccc([C@@H](O)[C@@H](CO)NC(=O)C(Cl)Cl)cc1 ?
> 30 µM

Reported AC50, compound C#CC1(OC(N)=O)CCCCC1 [ETHINAMATE] : ____
> 10 µM

Look at this compound and give its reported AC50. CN[C@@H]1[C@H](O)[C@H](NC)[C@H]2O[C@@]3(O)C(=O)C[C@@H](C)O[C@H]3O[C@@H]2[C@H]1O
> 10 µM

Looking for the measured AC50 of Cc1cc2c(OCC(CNC(C)(C)C)OC(=O)c3ccccc3)cccc2[nH]1 (centres undefined) , can you help?
0.0048 µM

What does the record list as AC50 for NC[C@H]1CC[C@H](C(=O)O)CC1 ?
> 10 µM

Request the reported AC50 associated with CC(=O)OCC(=O)[C@@]12OC3(CCCC3)O[C@@H]1C[C@H]1[C@@H]3CCC4=CC(=O)C=C[C@]4(C)[C@@]3(F)[C@@H](O)C[C@@]12C [AMCINONIDE]
> 10 µM

###

assay.endpoint: AC50 (µM)
Give the quantity in µM, number only.

Tell me reported AC50 for CC1=NN(c2ccccc2)C(=O)C1 [EDARAVONE] , tested with Muscarinic acetylcholine receptor M2 (Homo sapiens, UniProt P08172).
Sequence (P08172 whole entry): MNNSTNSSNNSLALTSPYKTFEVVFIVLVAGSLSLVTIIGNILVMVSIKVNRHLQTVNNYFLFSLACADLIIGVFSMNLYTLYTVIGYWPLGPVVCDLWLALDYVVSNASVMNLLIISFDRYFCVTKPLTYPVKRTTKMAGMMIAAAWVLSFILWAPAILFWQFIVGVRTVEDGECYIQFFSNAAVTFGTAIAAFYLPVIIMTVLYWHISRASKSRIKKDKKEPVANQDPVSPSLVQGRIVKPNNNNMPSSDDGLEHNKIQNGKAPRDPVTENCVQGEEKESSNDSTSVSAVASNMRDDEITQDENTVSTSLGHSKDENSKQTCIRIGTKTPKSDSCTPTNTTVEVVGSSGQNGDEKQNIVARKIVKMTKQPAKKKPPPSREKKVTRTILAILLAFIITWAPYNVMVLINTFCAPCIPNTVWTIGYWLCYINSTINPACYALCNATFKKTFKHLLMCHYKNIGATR
26.5

Test system Muscarinic acetylcholine receptor M2 (Homo sapiens, UniProt P08172); read-out AC50; what value for CC(=O)O[C@]1(C(C)=O)CC[C@H]2[C@@H]3C[C@H](C)C4=CC(=O)CC[C@]4(C)[C@H]3CC[C@@]21C [MEDROXYPROGESTERONE ACETATE] ?; note: assay procedure not described here
21.2
